Ref: ChEMBL document CHEMBL4334512

tested-system: Nuclear receptor ROR-gamma (Homo sapiens)
Sequence (P51449 whole entry, the tested form may be a part): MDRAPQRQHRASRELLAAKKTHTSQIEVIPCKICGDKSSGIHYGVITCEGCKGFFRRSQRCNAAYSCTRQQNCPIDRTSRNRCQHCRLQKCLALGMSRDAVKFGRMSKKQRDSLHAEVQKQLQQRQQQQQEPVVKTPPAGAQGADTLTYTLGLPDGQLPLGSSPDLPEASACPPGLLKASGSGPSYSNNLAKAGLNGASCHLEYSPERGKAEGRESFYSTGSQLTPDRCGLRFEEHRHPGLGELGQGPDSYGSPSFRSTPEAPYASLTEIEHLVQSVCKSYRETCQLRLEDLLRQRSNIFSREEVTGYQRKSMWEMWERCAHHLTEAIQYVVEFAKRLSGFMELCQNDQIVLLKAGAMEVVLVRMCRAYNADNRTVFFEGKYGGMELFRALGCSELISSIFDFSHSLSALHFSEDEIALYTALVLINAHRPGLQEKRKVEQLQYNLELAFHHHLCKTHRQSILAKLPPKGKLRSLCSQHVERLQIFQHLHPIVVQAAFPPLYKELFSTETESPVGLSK
procedure-summary: Inverse agonist activity at full length human RORgammat expressed in human Jurkat cells assessed as inhibition of constitutive receptor activity incubated for 18 hrs by Gal4-Luc reporter gene assay
Format: cell-based
assay-endpoint: EC50 (nM)

{"molecular-string": "CN1C[C@H]2N(C(=O)C3(O)CCS(=O)(=O)CC3)CC[C@@]2(S(=O)(=O)c2ccc(F)cc2)c2ccc(C(F)(C(F)(F)F)C(F)(F)F)cc21", "EC50 [nM]": 20}
{"molecular-string": "O=C(O)[C@H]1CC[C@](F)(C(=O)N2CC[C@@]3(S(=O)(=O)c4ccc(F)cc4)c4ccc(C(F)(C(F)(F)F)C(F)(F)F)cc4CC[C@@H]23)CC1", "EC50 [nM]": 15}
